Tested on: MS2 coat protein
assay: apparent KD of MS2 coat protein; designed switch direction (-1 OFF switch, 1 ON switch): 1; higher = weaker reporter binding
reported conditions: Eterna round: R95; input ligand: microRNA oligo, concentration not stated
value kind: apparent KD of MS2 coat protein (nM)

entry sequence	value kind	recorded result
GGAGCCGGCACCGAGGAUAUUCGUAUUAAAACAUGAGGAUCACCCAUGUAGGCCAGAAGGCCUUGGGAGAAGGCGGAUCGGCUCG [Xeonanis - 2] (puzzle: Same State 2)	apparent KD of MS2 coat protein	65.2
GGGAGACAUGAGGAUCACCCAUGUGGGAGGGAACGAGGAUAUGUAAGGAGAGAGAAUAGAACAGAAGGCGUAGGUG [JR_SS1_Sub022] (puzzle: Same State 1)	apparent KD of MS2 coat protein	50
ACACUUGCACAUGAGGAUCACCCAUGUUGACAAGCUUUUUGCUCGUCUUAUAGAACAAAGAAGAAGAACAACAGAAA [Victory 2] (puzzle: Sensor for hsa-mir-208a version 2)	apparent KD of MS2 coat protein	17.9
GACAAUCUAUCUGAGGAUAUCAUGAAUAAAACAUGAGGAUCACCCAUGUGCAGGAUAACUGCAAAUGAGAAGGCAGAUAGAUUGG [Mat - Same State 2 - Mod - D9] (puzzle: Same State 2)	apparent KD of MS2 coat protein	20
GAGGAACAUGAGGAUCACCCAUGUGGGAUGGGACAAGGAUAUGUAGGUAGAGGAGAAGAGACAGAAGGUGUAGGAG [JR_SS1_Sub052] (puzzle: Same State 1)	apparent KD of MS2 coat protein	232
AGCAAUCUAUCUCAGGAUAUCAUGUCAAAGACAUGAGGAUCACCCAUGUACCAGGAAACUGGUUAUGAGAAGGGAGAUAGAUUGA [Mat - Same State 2 - Mod - D29] (puzzle: Same State 2)	apparent KD of MS2 coat protein	52.2
GGGCCAGCUUGUGCUGGGCCUUCGCUUGCACAUGAGGAUCACCCAUGUCGUGUACAUGCUUGGUGCCCGUCUUUCCC [Photon Torp-15] (puzzle: Sensor for hsa-mir-208a)	apparent KD of MS2 coat protein	49.2
CUGUGUUGCGGGCAGGAUAUGUACUUGAGUACAUGAGGAUCACCCAUGUGCGGGUGUUUCACCCGACAGAAGGGCCAAUCGCGAC [JL-ss2-3.23 ViennaUCT mod] (puzzle: Same State 2)	apparent KD of MS2 coat protein	311
AAGAAAGUUUACGAGGAUAUGUUCCGCAUAACAUGAGGAUCACCCAUGUGAACAAGAAAGGCGACGCAGAAGGCGUGAGCAAAAG [Mat - Same State 2 - Mod of UCT - D97] (puzzle: Same State 2)	apparent KD of MS2 coat protein	199
CGAUGAUACUCAGGAAGGAGAGUAGAGGAACAUGAGGAUCACCCAUGUAUGAGCUUUUUGCUCGUCAUGAACAGGAG [JR_SHM208a_Sub009] (puzzle: Sensor for hsa-mir-208a)	apparent KD of MS2 coat protein	64.4
GUGGGACAUGAGGAUCACCCAUGUGGGAGGGAACGAGGAUAUGUGAGGAGCGAGAAGUGAACAGAAGGCGUGGUUG [JR_SS1_Sub023] (puzzle: Same State 1)	apparent KD of MS2 coat protein	75.3
